Target: human IRAK4 (Homo sapiens (Human), UniProt Q9NWZ3)
Sequence (Q9NWZ3 whole entry): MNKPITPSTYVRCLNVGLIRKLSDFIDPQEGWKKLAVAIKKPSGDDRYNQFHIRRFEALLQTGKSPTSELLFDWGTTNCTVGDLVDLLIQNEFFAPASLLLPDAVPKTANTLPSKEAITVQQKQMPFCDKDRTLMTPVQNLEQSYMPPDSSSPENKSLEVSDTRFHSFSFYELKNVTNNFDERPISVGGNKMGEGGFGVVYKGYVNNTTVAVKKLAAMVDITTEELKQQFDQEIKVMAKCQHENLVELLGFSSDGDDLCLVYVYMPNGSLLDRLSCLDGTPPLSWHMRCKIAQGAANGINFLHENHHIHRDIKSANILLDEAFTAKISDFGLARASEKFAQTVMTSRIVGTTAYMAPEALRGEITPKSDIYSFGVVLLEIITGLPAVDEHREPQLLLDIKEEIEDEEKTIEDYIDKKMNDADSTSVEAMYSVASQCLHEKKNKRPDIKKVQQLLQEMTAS
Assay: IRAK4 kinase inhibition, Transcreener fluorescence polarization ADP assay
Settings: recombinant full-length His6-IRAK4; 125 uM ATP; 90 min; Ki computed using ATP Km 642 uM
pKi: −log10 of the molar value.
Label not fulfilled if pKi falls below 8; label fulfilled in every other case.

Use these answered entries as a reference point.
>  <compound>
CC1CCCN1c1cc2c(cc1NC(=O)c1cnn3cccnc13)CC(C)(C)O2 (centres unmarked)

>  <class_assignment>
not fulfilled

$$$$
>  <compound>
CC1(C)Cc2cc(NC(=O)c3cnn4cccnc34)c([C@@H]3C[C@H]3C(N)=O)cc2O1

>  <class_assignment>
not fulfilled

$$$$
>  <compound>
O=C(Nc1cc2c(cc1N1CCOCC1)C(=O)N([C@H]1CC[C@H](O)CC1)C2)c1cnn2cccnc12

>  <class_assignment>
fulfilled

$$$$

Q: Determine whether measured pKi meets or exceeds 8 for CC1(C)Cc2cc(NC(=O)c3cnn4cccnc34)c(N3CCN(CC4CCC(=O)N4)CC3)cc2O1 (centres unmarked)
A: fulfilled

Q: Identify whether the reported pKi of the following compound is 8 or greater: CC1(C)Cc2cc(NC(=O)c3cnn4cccnc34)c(N3CCC(c4nnco4)CC3)cc2O1
A: fulfilled

Q: hey, is pKi for this one >= 8? C[C@]1(CO)Cc2cc(NC(=O)c3cnn4cccnc34)c(N3CCN(CCO)CC3)cc2O1
A: not fulfilled

* * *

Consider the following compounds; for each one, report its Ki.
Biological target: human IRAK4 (Homo sapiens (Human))
Assay: IRAK4 kinase inhibition, Transcreener fluorescence polarization ADP assay
Details: recombinant full-length His6-IRAK4; 125 uM ATP; 90 min; Ki computed using ATP Km 642 uM
Experimental: Compounds were assayed for inhibition of human IRAK4 and IRAK1 catalytic activity using recombinant enzyme produced from insect cells. Full-length IRAK4 protein, carrying an N-terminal His6-Tag, was obtained from Life Technologies (Carlsbad, Calif., USA). The IRAK1 construct was produced internally and was comprised of IRAK1 residues Arg194 to Ser712, preceded by an NH2-terminal His6 tag and the coding sequence for glutathione-S-transferase.
Numbers only, in nM.

These recorded examples may help you get a feel for the data.
>  <compound>
CN1CCC(c2cc3c(cc2NC(=O)c2cnn4cccnc24)CC(C)(C)O3)CC1 [Example 63]

>  <Ki (nM)>
390

$$$$
>  <compound>
CC1(C)Cc2cc(NC(=O)c3cnn4cccnc34)c(OCc3ccncc3)cc2O1 [Example 301]

>  <Ki (nM)>
17

$$$$
>  <compound>
CC(C)(O)[C@H](F)CN1Cc2cc(NC(=O)c3cnn4cccnc34)c(N3CCC([C@H](O)C(F)F)CC3)cc2C1=O (single isomer, unassigned) [Example 282]

>  <Ki (nM)>
2

$$$$

Please look at the items below and tell me Ki for each one, in order.
1. C[C@]1(CO)Cc2cc(NC(=O)c3cnn4cccnc34)c(N3CCC(F)(F)CC3)cc2O1 [Example 122]
2. CC1(C)Cc2cc(NC(=O)c3cnn4cccnc34)c(N3CCC(C(O)C(F)(F)F)CC3)cc2O1 (stereo not shown) [Example 245]
3. O=C(CN1CCN(c2cc3c(cc2NC(=O)c2cnn4cccnc24)CC2(CCNCC2)O3)CC1)NC1CC1 [Example 375]

A:
1: 6; 2: 10; 3: 47

Ki for C[C@@]1(O)CCCN(c2cc3c(cc2NC(=O)c2cnn4cccnc24)C[C@@](C)(CO)O3)CC1 (single isomer, unassigned) [Example 331] is 12
